Target: 17β-hydroxysteroid dehydrogenase type 3 (Homo sapiens)
Construct: expressed in transfected cells; host or cells: MCF-7
Sequence (P37058 whole entry): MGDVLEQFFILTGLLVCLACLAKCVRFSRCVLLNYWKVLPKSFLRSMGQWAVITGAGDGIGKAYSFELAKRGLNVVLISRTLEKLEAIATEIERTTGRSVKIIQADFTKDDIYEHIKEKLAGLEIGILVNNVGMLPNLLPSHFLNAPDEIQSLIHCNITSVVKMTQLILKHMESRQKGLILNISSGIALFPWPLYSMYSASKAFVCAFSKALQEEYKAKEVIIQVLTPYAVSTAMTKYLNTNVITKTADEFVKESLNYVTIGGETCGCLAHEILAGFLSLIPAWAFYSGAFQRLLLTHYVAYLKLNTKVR
Assay: Inhibition of 17β-HSD type 3 in MCF-7 cells stably expressing the isoenzyme (HPLC, tritium labeled androstenedione)
Type: cell-based
Settings: MCF7, 1 μM compound, 2 nM androstenedione, read-out: % Inhibition of the 17β-HSD enzyme type 3 (HSD3)
READOUT_TYPE: inhibition at 1 µM (%)

Illustrative cases are given below, each with its answer.
* CCCSC1=C(C=O)CCc2c1sc1nc3n(c(=O)c21)CCCCC3 | 10.5
* O=C(O)C1=C(Cl)c2sc3nc4n(c(=O)c3c2CC1)CCCCC4 | -6.4
* Cc1nc2sc3c(c2c(=O)n1C)CCCC3 | 51.7

(a) O=c1c2c3c(sc2nc2n1CCCC2)CCCC3
(b) COC(=O)C1CCc2nc3sc4c(c3c(=O)n2CC1)CCC(C=O)=C4OC (centres unmarked)
(c) CC1CCc2c(sc3nc4n(c(=O)c23)CCCCC4)C1=O (centres unmarked)
Q: Arrange by inhibition at 1 µM, high to low. Give the labels in the order specified.
Result: a, b, c
